Provide the reported inhibition of each item.
targetUnderTest: G/T mismatch-specific thymine DNA glycosylase (Homo sapiens);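 also: human TDG cleavage of quenched duplex DNA oligonucleotides coupled to APE1, strand release read as fluorescence at 594 nm, inhibition of TDG activity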
conditionNotes: Compound Concentration 10.0 uM, Hit No
Description: Inhibition of TDG by quantifying inhibition of TDG-mediated cleavage and dissociation of quenched duplex DNA oligonucleotides, measured as fluorescence at 594 nm. To generate a functional strand incision and increase turn-over this assay is coupled to APE1.
The reply should consist of the numeric value with the unit placed after it.

Report the value of inhibition obtained on G/T mismatch-specific thymine DNA glycosylase (Homo sapiens) for "COc1cc(Nc2nccc(-c3cnn4nc(OC)ccc34)n2)cc(C(F)(F)F)c1" . 8.41%

Report the value of inhibition obtained on G/T mismatch-specific thymine DNA glycosylase (Homo sapiens) for "O=C(NCCCN1CCOC1=O)c1cnc(NCc2cc(Br)ccc2Br)nc1NC1CCCC1" . 48.3%

Report the value of inhibition obtained on G/T mismatch-specific thymine DNA glycosylase (Homo sapiens) for "Cc1cc(C(=O)N2CCN(C3CN(C(=O)c4ccc(-c5ccccc5)cc4)C3)CC2)no1" . 35.7%

Report the value of inhibition obtained on G/T mismatch-specific thymine DNA glycosylase (Homo sapiens) for "O=S(=O)(Nc1ccc(C(O)(C(F)(F)F)C(F)(F)F)cc1)c1cccs1" . 99.8%

Report the value of inhibition obtained on G/T mismatch-specific thymine DNA glycosylase (Homo sapiens) for "Cc1ccc2nc(NCCN)c3ncc(C)n3c2c1" . 67.6%

Report the value of inhibition obtained on G/T mismatch-specific thymine DNA glycosylase (Homo sapiens) for "COc1cccc2c1c(NS(=O)(=O)c1ccc(Cl)s1)nn2Cc1cccc(CNC(=O)C(C)(C)O)c1" . 0.908%

Report the value of inhibition obtained on G/T mismatch-specific thymine DNA glycosylase (Homo sapiens) for "CC(=O)C1=C(C)N(c2cccc(C(F)(F)F)c2)C(=O)N[C@H]1c1ccc(C#N)nc1" . 45.5%

Report the value of inhibition obtained on G/T mismatch-specific thymine DNA glycosylase (Homo sapiens) for "O=C(Nc1cccnn1)N1CC(C/C=C/c2cncc(Oc3ccc(C(F)(F)F)cn3)n2)C1" . 97.9%

Report the value of inhibition obtained on G/T mismatch-specific thymine DNA glycosylase (Homo sapiens) for "COc1ccc2c(c1)O[C@H](c1ccc(OC)c(OC)c1)C[C@@H]2NC(=O)C1(c2ccc3c(c2)OC(F)(F)O3)CC1" . 47.2%

---

Provide the reported inhibition of each item.
targetUnderTest: UniProtKB P13051
Sequence (P13051 whole entry): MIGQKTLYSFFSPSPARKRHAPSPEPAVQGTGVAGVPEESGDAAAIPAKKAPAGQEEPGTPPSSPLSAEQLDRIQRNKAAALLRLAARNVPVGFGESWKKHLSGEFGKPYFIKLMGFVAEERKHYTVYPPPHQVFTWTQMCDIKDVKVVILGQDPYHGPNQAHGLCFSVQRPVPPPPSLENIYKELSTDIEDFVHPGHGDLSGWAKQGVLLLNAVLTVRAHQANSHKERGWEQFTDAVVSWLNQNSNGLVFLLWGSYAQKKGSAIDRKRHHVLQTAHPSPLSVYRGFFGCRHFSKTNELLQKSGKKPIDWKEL
conditionNotes: Compound Concentration 10.0 uM, Hit No
Description: Inhibition of UNG by quantifying inhibition of UNG-mediated cleavage and dissociation of quenched duplex DNA oligonucleotides, measured as fluorescence at 594 nm. To generate a functional strand incision and increase turn-over this assay is coupled to APE1.
Form entry: value (%) — number only.

Annotate the compound Clc1ccc(C2CC3CCC2N3)cn1 (stereo not drawn) with its measured inhibition. -9.39

Annotate the compound "CS(=O)(=O)c1cccc(NC(=O)N(Cc2ccc(C(=O)Nc3nnn[nH]3)cc2)c2ccc(C3CCCCC3)cc2)c1" with its measured inhibition. -4.34

Annotate the compound "COc1cccc2c1c(NS(=O)(=O)c1ccc(Cl)s1)nn2Cc1cccc(CNC(=O)C(C)(C)O)c1" with its measured inhibition. -8.69

Annotate the compound "CCOC(=O)N[C@@H]1CC[C@@H]2[C@@H](C1)C[C@H]1C(=O)O[C@H](C)[C@H]1[C@H]2/C=C/c1ccc(-c2cccc(F)c2)cn1" with its measured inhibition. -5.33

Annotate the compound "Fc1ccc(-c2c3cccc(C(F)(F)F)c3nn2Cc2ccc(F)cc2Cl)cc1" with its measured inhibition. 4.08

Annotate the compound "CCOc1nc2cccc(C(=O)O)c2n1Cc1ccc(-c2ccccc2-c2nnn[nH]2)cc1" with its measured inhibition. -8.46

Annotate the compound "C[C@H](NC(=O)[C@H](Cc1ccccc1)NC(=O)[C@H](CCC(N)=O)NC(=O)CNC(=O)[C@@H]1CCCN1C(=O)[C@H](Cc1ccccc1)NC(=O)[C@@H](N)Cc1ccc(O)cc1)C(=O)N[C@@H](Cc1ccccc1)C(=O)N[C@@H](CO)C(=O)O" with its measured inhibition. -4.67

Annotate the compound "C=C1/C(=C\C=C2/CCC[C@]3(C)[C@@H]([C@H](C)/C=C/C=C/C(O)(CC)CC)CC[C@@H]23)C[C@@H](O)C[C@@H]1O" with its measured inhibition. 0.169
